System: cultured human aortic smooth muscle cells (SMC)
Assay: SMC collagen gel contraction stimulated by angiotensin II
Format: cell-based
Conditions: Apr. 2, 2003; 30 mcM; ATII alone 76%
ENDPOINT: GA, % vs 100% control (%)
Give the number; % is assumed, so skip it.

For the molecule O=C(O[C@@H]1Cc2c(O)cc(O)cc2O[C@@H]1c1cc(O)c(O)c(O)c1)c1cc(O)c(O)c(O)c1 [EGCG, Epigallocatechin gallate] , what GA, % vs 100% control is on record?
150

Another molecule to look at: "O=c1c(-c2ccc(O)cc2)coc2cc(O)cc(O)c12"
96

Another molecule to look at: "Oc1ccc(C=Cc2cc(O)cc(O)c2)cc1"
88

Another molecule to look at: "C[C@@H]1O[C@@H](OC[C@H]2O[C@@H](Oc3c(-c4ccc(O)c(O)c4)oc4cc(O)cc(O)c4c3=O)[C@H](O)[C@@H](O)[C@@H]2O)[C@H](O)[C@H](O)[C@H]1O"
80

Another molecule to look at: "O=c1c(O)c(-c2ccc(O)c(O)c2)oc2cc(O)cc(O)c12"
167
